- tested.system: Bovine Serum albumin (BSA) (Bos taurus, UniProt P02769)
- Sequence (P02769 25-607): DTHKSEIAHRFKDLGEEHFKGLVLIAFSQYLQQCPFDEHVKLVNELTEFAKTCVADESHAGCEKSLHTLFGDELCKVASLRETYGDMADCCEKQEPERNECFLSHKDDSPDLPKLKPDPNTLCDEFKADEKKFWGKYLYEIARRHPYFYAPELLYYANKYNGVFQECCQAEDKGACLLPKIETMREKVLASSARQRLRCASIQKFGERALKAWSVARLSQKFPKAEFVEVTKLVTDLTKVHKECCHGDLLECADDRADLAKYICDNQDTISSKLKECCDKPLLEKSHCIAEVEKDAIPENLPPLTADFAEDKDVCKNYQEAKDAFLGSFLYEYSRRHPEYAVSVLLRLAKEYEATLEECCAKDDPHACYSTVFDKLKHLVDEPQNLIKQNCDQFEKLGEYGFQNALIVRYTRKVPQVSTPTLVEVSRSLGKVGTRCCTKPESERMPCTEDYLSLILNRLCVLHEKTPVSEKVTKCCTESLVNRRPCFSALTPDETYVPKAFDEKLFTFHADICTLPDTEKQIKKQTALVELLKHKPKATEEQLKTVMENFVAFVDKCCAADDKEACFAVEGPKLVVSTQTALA
- assay.remarks: intrinsic Trp fluorescence titration, Scatchard analysis

[
  {
    "mol.smiles": "CCCCCCCCCCCCOS(=O)(=O)O",
    "Kd": "22.2 µM"
  }
]

----------
Measured pKd, listed per entry.
- tested.system: α-chymotrypsinogen A (aCHY) (Bos taurus)
pKd: −log10 of the molar value.
parameter.measured: pKd

[
  {
    "compound": "C=CCCCCCCCCCOS(=O)(=O)O [SUS]",
    "test.result": 3.30
  },
  {
    "compound": "CCCCCCCCCCCCOS(=O)(=O)O [SDS]",
    "test.result": 3.34
  }
]
